Below: a set of entries, each annotated with reported TGI.
system: NCI/ADR-RES ovarian; assay: NCI tumour cell line growth inhibition, 48 h

molecule | TGI
COC(=O)c1c(C)n([O-])c2cc(Cl)c(Cl)cc2[n+]1=O | 49.5 µM
O=C(NC1CCN(Cc2ccccc2)CC1)c1ccc(I)cc1 | > 100 µM
CCCCCCCC1(N=[N+]=[N-])C(=O)Nc2ccccc2C1=O (stereo unspecified) | 48.5 µM
CC(=O)C1=CN=C2C(=O)N(c3ccccc3)N(C)C12C (stereo unspecified) | > 100 µM
CCC1(O)C(=O)OCc2c1cc1n(c2=O)Cc2cc3c(NC(=O)CN)cccc3nc2-1 (stereo unspecified) | 1.51 µM
CCC1OC2C(CC=C(C)C)=C3OC(C)(O)C(C)(CC)C(OC(C)=O)C3=C3OC(=O)C=C1C32 (stereo unspecified) | 83.2 µM

Data provenance is PubChem BioAssay (NCI).
